Measured MIC by item
- Test system: E. faecalis Tc^r (M) (ATCC9790r/Tet M)
- Type: cell-based
- assayContext: 2nd column

Q. I would be grateful if you could share the reported MIC for CN(C)C1C(O)=C(C(N)=O)C(=O)C2(O)C(O)=C3C(=O)c4c(O)cccc4C(C)(O)C3CC12 (stereo not shown) [Tetracycline, reference compound] .
A. 300 µg

Q. I would be grateful if you could share the reported MIC for CC(C)SCC1c2cccc(O)c2C(=O)C2=C(O)C3(O)C(=O)C(C(N)=O)=C(O)C(N(C)C)C3C(O)C21 (stereo not shown) .
A. >200 µg

Q. I would be grateful if you could share the reported MIC for CN(C)c1ccc(O)c2c1C[C@H]1C[C@H]3[C@H](N(C)C)C(=O)C(C(N)=O)=C(O)[C@@]3(O)C(=O)C1=C2O [Minocycline, reference compound] .
A. >80 µg

Q. I would be grateful if you could share the reported MIC for CCSCC1c2cccc(O)c2C(=O)C2=C(O)C3(O)C(=O)C(C(N)=O)=C(O)C(N(C)C)C3CC21 (stereo not shown) [Ethyl, 6-deoxy-13-(ethylmercapto) tetracycline] .
A. >200 µg

* * *

- System: E. coli Class β Tc^r (DI-209)
- Type: cell-based
- assayContext: 2nd column
measurementKind: MIC (µg)
API: value field is a number in µg; no unit string.

As a guide, the following entries are already answered.
CCSCC1c2cccc(O)c2C(=O)C2=C(O)C3(O)C(=O)C(C(N)=O)=C(O)C(N(C)C)C3CC21 (stereo not shown) [Ethyl, 6-deoxy-13-(ethylmercapto) tetracycline]    60
CC(C)SCC1c2cccc(O)c2C(=O)C2=C(O)C3(O)C(=O)C(C(N)=O)=C(O)C(N(C)C)C3C(O)C21 (stereo not shown)    46

Could you now consider this next compound?
Q. I would be grateful if you could share the reported MIC for CN(C)c1ccc(O)c2c1C[C@H]1C[C@H]3[C@H](N(C)C)C(=O)C(C(N)=O)=C(O)[C@@]3(O)C(=O)C1=C2O [Minocycline, reference compound] .
A. 30

* * *

Measured pIC50 by item
- systemTested: TET proteins responsible for tetracycline efflux (Class B tetracycline resistance determinant, strain D1-209) (Escherichia coli)
- Construct: Everted vesicles, to which the TET proteins responsible for tetracycline efflux are attached; endogenous in cells; host or cells: E. coli strain D1-209 (everted membrane vesicles)
- Sequence (P02980 whole entry): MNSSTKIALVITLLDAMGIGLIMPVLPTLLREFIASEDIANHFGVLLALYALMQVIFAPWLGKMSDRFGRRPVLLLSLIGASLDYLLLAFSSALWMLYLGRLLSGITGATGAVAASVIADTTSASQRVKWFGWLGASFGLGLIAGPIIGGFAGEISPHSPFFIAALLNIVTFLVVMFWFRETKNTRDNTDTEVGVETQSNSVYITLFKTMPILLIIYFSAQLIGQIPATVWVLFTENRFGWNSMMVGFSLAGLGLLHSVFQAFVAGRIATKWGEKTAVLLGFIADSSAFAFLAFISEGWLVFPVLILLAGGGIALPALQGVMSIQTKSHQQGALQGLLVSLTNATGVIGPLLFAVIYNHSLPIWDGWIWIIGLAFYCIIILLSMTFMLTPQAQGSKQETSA
- testProtocol: biochemical
- Parameters: species or system E. coli
The read-out pIC50 is expressed as -log10 of concentration in moles per litre.

CC1c2cccc(O)c2C(=O)C2=C(O)C3(O)C(=O)C(C(N)=O)=C(O)[C@@H](N(C)C)C3[C@@H](OC(=O)CCC(=O)O)C21 (stereo partly drawn)    5.70

Q. I would be grateful if you could share the reported pIC50 for C=C1c2cccc(O)c2C(=O)C2=C(O)C3(O)C(=O)C(C(N)=O)=C(O)C(N(C)C)C3C(OC(=O)C3CC3)C12 (stereo not drawn) [Cmpd 11, 5 cyclopropanoate methacycline] .
A. 5.03

Q. I would be grateful if you could share the reported pIC50 for C=C1c2cccc(O)c2C(=O)C2=C(O)C3(O)C(=O)C(C(N)=O)=C(O)C(N(C)C)C3C(OC(=O)CC)C12 (stereo not drawn) [Cmpd 2, 5 proprionate methacycline] .
A. 6.70

Q. I would be grateful if you could share the reported pIC50 for CCC(=O)OC1C2C(=C(O)C3(O)C(=O)C(C(N)=O)=C(O)C(N(C)C)C13)C(=O)c1c(O)cccc1C2CSC1CCCC1 (stereo not drawn) .
A. 5.48

Q. I would be grateful if you could share the reported pIC50 for CCCCCCCC(=O)O[C@H]1C2C(=C(O)C3(O)C(=O)C(C(N)=O)=C(O)[C@@H](N(C)C)C13)C(=O)c1c(O)cccc1C2C (stereo partly drawn) .
A. 5.03

The origin of these recorded values is patent US7414041B2.
